Tested on: human neonatal fibroblasts
Experiment description: Cell viability by ATP content of substantially dry stored human neonatal fibroblasts
Assay type: cell-based
Set-up: concentration or dose not given beside the values
Run conditions: inhibitor in predehydration and rehydration formulation, MCS dehydration formulation 41, dry stored 120 hr at ambient temperature
Measurement label: % CELL VIABILITY 120 hr (%)
Return type: number; implicit unit %.

O=C(NOC[C@H](O)CO)c1ccc(F)c(F)c1Nc1ccc(I)cc1F = 95.7
C[S+]([O-])CCCCN=C=S (stereo not drawn) = 50.9
O=c1cc(N2CCOCC2)oc2c(-c3ccccc3)cccc12 = 98.7
OC[C@H]1O[C@H](O[C@H]2O[C@H](CO)[C@@H](O)[C@H](O)[C@H]2O)[C@H](O)[C@@H](O)[C@@H]1O = 0.0
CO[C@H]1C[C@@H]2CC[C@@H](C)[C@@](O)(O2)C(=O)C(=O)N2CCCC[C@H]2C(=O)O[C@H]([C@H](C)C[C@@H]2CC[C@@H](O)[C@H](OC)C2)CC(=O)[C@H](C)/C=C(\C)[C@@H](O)[C@@H](OC)C(=O)[C@H](C)C[C@H](C)/C=C/C=C/C=C/1C = 90.0

With those in mind, consider the next molecule.
Per the records, this molecule ( O=C(/C=C/c1ccccc1)NC(NC(=S)Nc1cccc2cccnc12)C(Cl)(Cl)Cl (stereo not drawn) ) has % CELL VIABILITY 120 hr equal to 109.5

Each recorded value in this set is attributed to patent US20180184644A1.
